tested on: SYO-1 complex spheroid growth, percent test/control; test: Anticancer human tumor SYO-1 cell line growth inhibition [Asc]; details: second compound 0.0316 µM; first compound 3 µM; active = viability on the fitted dose curve at most 10% of control; inactive = the rest;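 note: compound exposure lasted 7 days after spheroids grew 3 days; 100% = DMSO vehicle control viability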
Outcomes: 1 for active, -1 for inactive

Molecule	Assayed Target	Assigned Class
CCN1C(C(=O)NC23CCC(C(=O)O)(CC2)CC3)C(c2cccc(Cl)c2F)C2(C(=O)Nc3cc(Cl)ccc32)C12CCCCC2 (centres undefined) + CNC(C)C(=O)NC1CN(S(=O)(=O)c2cccc(S(=O)(=O)N3CCC4CCC(C(=O)NC(c5ccccc5)c5ccccc5)N4C(=O)C(NC(=O)C(C)NC)C3)c2)CCC2CCC(C(=O)NC(c3ccccc3)c3ccccc3)N2C1=O	SYO-1 complex spheroid growth, percent test/control	1
Cc1nc(N2CCC3(CC2)COC(C)C3N)c(CO)nc1Sc1ccnc(N)c1Cl (centres undefined) + Cc1c(S(C)(=O)=O)c(-c2cc(F)cc(N3CCN(c4ccc(NS(=O)(=O)c5ccc(NC(CCN6CCC(C(=O)OCCCP(=O)(O)O)CC6)CSc6ccccc6)c(S(=O)(=O)C(F)(F)F)c5)cc4)CC3)c2)c(-c2ccc(Cl)cc2)n1C(C)C	SYO-1 complex spheroid growth, percent test/control	-1
Cc1nc(N2CCC3(CC2)COC(C)C3N)c(CO)nc1Sc1ccnc(N)c1Cl (centres undefined) + CNC(C)C(=O)NC1CN(S(=O)(=O)c2cccc(S(=O)(=O)N3CCC4CCC(C(=O)NC(c5ccccc5)c5ccccc5)N4C(=O)C(NC(=O)C(C)NC)C3)c2)CCC2CCC(C(=O)NC(c3ccccc3)c3ccccc3)N2C1=O	SYO-1 complex spheroid growth, percent test/control	-1
CCN1C(C(=O)NC23CCC(C(=O)O)(CC2)CC3)C(c2cccc(Cl)c2F)C2(C(=O)Nc3cc(Cl)ccc32)C12CCCCC2 (centres undefined) + Cc1c(S(C)(=O)=O)c(-c2cc(F)cc(N3CCN(c4ccc(NS(=O)(=O)c5ccc(NC(CCN6CCC(C(=O)OCCCP(=O)(O)O)CC6)CSc6ccccc6)c(S(=O)(=O)C(F)(F)F)c5)cc4)CC3)c2)c(-c2ccc(Cl)cc2)n1C(C)C	SYO-1 complex spheroid growth, percent test/control	1
